Molecular target: SF3b complexes (Homo sapiens, UniProt O75533+Q7RTV0)
Construct: endogenous in cells; host or cells: Nuclear extracts; A HeLa S3 extract preparation is described for the in vitro splicing assay
Experiment: Scintillation proximity assay (SPA) with [3H]-labelled pladienolide probe
Type: binding
Details: SF3B1 (WT); geometric mean; read-out: SPA-ATS GMean IC50 (nM) SF3B1 (WT)
Consider the following molecules and their measured IC50 readings.
quantity: IC50 (nM)

1) C/C(=C\c1cc(F)cc(N2CCN(C(=O)Cn3cccn3)CC2)c1)[C@H]1OC(=O)C[C@H](O)CC[C@H](C)[C@@H](OC(=O)N2CCN(C)C(C)(C)C2)/C=C/[C@@H]1C | 5.01
2) COCC(=O)N1CCC(N(C)c2cc(F)cc(/C=C(\C)[C@H]3OC(=O)C[C@H](O)CC[C@H](C)[C@@H](OC(=O)N4CCN(C)CC4)/C=C/[C@@H]3C)c2)CC1 | 6.15
3) COCC(=O)N1CCN(c2cc(F)cc(/C=C(\C)[C@H]3OC(=O)C[C@H](O)CC[C@H](C)[C@@H](OC(=O)N4CCN(C)CC4)/C=C/[C@@H]3C)c2)CC1 | 2.03
4) C/C(=C\c1cc(F)cc(N2CCOCC2)c1)[C@H]1OC(=O)C[C@H](O)CC[C@H](C)[C@@H](OC(=O)N(C)C2CN3CCC2CC3)/C=C/[C@@H]1C (some centres unmarked) | 3.45
5) C/C(=C\c1cc(F)cc(N2CCN(CCCO)CC2)c1)[C@H]1OC(=O)C[C@H](O)CC[C@H](C)[C@@H](OC(=O)N2CCN(C)CC2)/C=C/[C@@H]1C | 8.11
6) C/C(=C\c1ccc(C)c2[nH]ncc12)[C@H]1OC(=O)C[C@H](O)CC[C@H](C)[C@@H](OC(=O)N2CCN(C)CC2)/C=C/[C@@H]1C | 3.25
7) COc1ccc(-n2nnc3c(F)cc(/C=C(\C)[C@H]4OC(=O)C[C@H](O)CC[C@H](C)[C@@H](OC(=O)N5CCN(C)CC5)/C=C/[C@@H]4C)cc32)cc1 | 18.7
8) C/C(=C\c1cccc(N2CCN(CCO)CC2)c1)[C@H]1OC(=O)C[C@H](O)CC[C@H](C)[C@@H](OC(=O)N2CCC(N3CCCCC3)CC2)/C=C/[C@@H]1C | 37.7
9) C/C(=C\c1cc(F)cc(N2CCOCC2)c1)[C@H]1OC(=O)C[C@H](O)CC[C@@](C)(O)C(OC(=O)N2CCN(C)CC2)/C=C/[C@@H]1C (stereo in doubt) | 12.2
10) CC(=O)N1CCC(N(C)c2cc(F)cc(/C=C(\C)[C@H]3OC(=O)C[C@H](O)CC[C@H](C)[C@@H](OC(=O)N4CCN(C)CC4)/C=C/[C@@H]3C)c2)CC1 | 2.38
11) C/C(=C\c1ccc(C)c(S(=O)(=O)N2CCCC2)c1)[C@H]1OC(=O)C[C@H](O)CC[C@H](C)[C@@H](OC(=O)N2CCN(C)CC2)/C=C/[C@@H]1C | 10.1

---

System: NCI-H1568 cells (high MCL1)
Assay: Cell proliferation and viability, CellTiter-Glo, 72 hours
Assay type: cell-based
Details: NCI-H1568, read-out: CTGlo-ATS GMean GI50 (nM) 72 h NCIH1568.1; 72 h; NCIH1568.1; geometric mean
Each entry falls into one class according to its GI50; the ranges are low band = under 20 nM, middle band = from 20 nM up to 40 nM, high band = 40 nM and over

1. C/C(=C\c1cccc(S(=O)(=O)N2CCC(F)(F)C2)c1)[C@H]1OC(=O)C[C@H](O)CC[C@H](C)[C@@H](OC(=O)N2CCN(C)CC2)/C=C/[C@@H]1C | high band
2. C/C(=C\c1cccc(COC(=O)N2CC[C@@H](F)C2)c1)[C@H]1OC(=O)C[C@H](O)CC[C@H](C)[C@@H](OC(=O)N2CCN(C)CC2)/C=C/[C@@H]1C [Compound 260] | high band
3. C/C(=C\c1cc(F)cc(N2CCOCC2)c1)[C@H]1OC(=O)C[C@H](O)CC[C@H](C)[C@@H](OC(=O)N2CC[C@@H](F)C2)/C=C/[C@@H]1C | middle band
4. C/C(=C\c1cc(F)c2cnn(C3CCN(S(C)(=O)=O)CC3)c2c1)[C@H]1OC(=O)C[C@H](O)CC[C@H](C)[C@@H](OC(=O)N2CCN(C)CC2)/C=C/[C@@H]1C | low band
5. C/C(=C\c1cccc(S(=O)(=O)NC(C)(C)CO)c1)[C@H]1OC(=O)C[C@H](O)CC[C@H](C)[C@@H](OC(=O)N2CCN(C)CC2)/C=C/[C@@H]1C | middle band
6. C/C(=C\c1cc(F)cc(N2CCOCC2)c1)[C@H]1OC(=O)C[C@H](O)CC[C@H](C)[C@@H](OC(=O)NCCN(C)C)/C=C/[C@@H]1C | high band
7. C/C(=C\c1cc(F)cc(NS(=O)(=O)N(C)C)c1)[C@H]1OC(=O)C[C@H](O)CC[C@H](C)[C@@H](OC(=O)N2CCN(C)CC2)/C=C/[C@@H]1C | high band
8. C/C(=C\c1cccc(S(=O)(=O)NC(C)C)c1)[C@H]1OC(=O)CC(O)CCC(C)[C@@H](OC(=O)N2CCN(C)CC2)/C=C/[C@@H]1C (stereo in doubt) | low band
9. C/C(=C\c1cccc(S(=O)(=O)N2CC(F)(F)C2)c1)[C@H]1OC(=O)C[C@H](O)CC[C@H](C)[C@@H](OC(=O)N2CCN(C)CC2)/C=C/[C@@H]1C | high band
10. COCC(=O)Nc1cc(F)cc(/C=C(\C)[C@H]2OC(=O)CC(O)CCC(C)[C@@H](OC(=O)N3CCN(C)CC3)/C=C/[C@@H]2C)c1 (stereo in doubt) | low band
11. C/C(=C\c1cccc(S(=O)(=O)N2CC[C@@H](O)C2)c1)[C@H]1OC(=O)C[C@H](O)CC[C@H](C)[C@@H](OC(=O)N2CCN(C)CC2)/C=C/[C@@H]1C | middle band
12. C/C(=C\c1cccc(S(=O)(=O)N2CCCCC2)c1)[C@H]1OC(=O)C[C@H](O)CC[C@H](C)[C@@H](OC(=O)N2CCN(C)CC2)/C=C/[C@@H]1C | low band
13. C/C(=C\c1cc(F)cc(N2CCN(C(=O)Cn3cccn3)CC2)c1)[C@H]1OC(=O)C[C@H](O)CC[C@H](C)[C@@H](OC(=O)N2CCN(C3CCCCCC3)CC2)/C=C/[C@@H]1C | low band
14. C/C(=C\c1cc(F)cc(N2CCN(C(=O)Cn3cccn3)CC2)c1)[C@H]1OC(=O)C[C@H](O)CC[C@H](C)[C@@H](OC(=O)N2CCN(C)C(C)(C)C2)/C=C/[C@@H]1C | low band
15. C/C(=C\c1cc(F)cc(N2CCN(C(=O)Cn3cccn3)CC2)c1)[C@H]1OC(=O)C[C@H](O)CC[C@H](C)[C@@H](OC(=O)N2CCOCC2)/C=C/[C@@H]1C | middle band
16. COc1ccc(CNC(=O)O[C@H]2/C=C/C(C)C(/C(C)=C/c3cc(F)cc(N4CCN(C(=O)Cn5cccn5)CC4)c3)OC(=O)CC(O)CC[C@@H]2C)cc1 (stereo in doubt) | middle band
17. CNS(=O)(=O)c1cccc(/C=C(\C)[C@H]2OC(=O)CC(O)CCC(C)[C@@H](OC(=O)N3CCN(C)CC3)/C=C/[C@@H]2C)c1 (stereo in doubt) | high band
18. C/C(=C\c1cccc(S(=O)(=O)N2CCCC2C)c1)[C@H]1OC(=O)CC(O)CCC(C)[C@@H](OC(=O)N2CCN(C)CC2)/C=C/[C@@H]1C (stereo in doubt) | middle band
19. C/C(=C\c1cccc(S(=O)(=O)N2CCC(F)(F)CC2)c1)[C@H]1OC(=O)C[C@H](O)CC[C@H](C)[C@@H](OC(=O)N2CCN(C)CC2)/C=C/[C@@H]1C | middle band
20. C/C(=C\c1cc(F)cc(N2CCN(C(=O)Cn3cccn3)CC2)c1)[C@H]1OC(=O)C[C@H](O)CC[C@H](C)[C@@H](OC(=O)N2CCNC(=O)C2)/C=C/[C@@H]1C | low band
21. C/C(=C\C1=CCCN(C(=O)OC(C)(C)C)C1)[C@H]1OC(=O)C[C@H](O)CC[C@H](C)[C@@H](OC(=O)N2CCN(C)CC2)/C=C/[C@@H]1C | high band

---

System: NCI-H1568 cells (high MCL1)
Assay: Cell proliferation and viability, CellTiter-Glo, 72 hours
Format: cell-based
Settings: NCI-H1568, read-out: CTGlo-ATS GMean GI50 (nM) 72 h NCIH1568.1; 72 h; NCIH1568.1; geometric mean
Under this convention, condition met denotes GI50 strictly below 20 nM and condition not met denotes GI50 at or above 20 nM.

1. C/C(=C\c1ccc(C)c(S(=O)(=O)N2CCCC2)c1)[C@H]1OC(=O)C[C@H](O)CC[C@H](C)[C@@H](OC(=O)N2CCN(C)CC2)/C=C/[C@@H]1C [Compound 203] | condition not met
2. C/C(=C\c1cccc(NS(=O)(=O)C2CC2)c1)[C@H]1OC(=O)C[C@H](O)CC[C@H](C)[C@@H](OC(=O)N2CCN(C)CC2)/C=C/[C@@H]1C [Compound 216] | condition not met
3. COCC(=O)N[C@H]1CCN(c2cc(F)cc(/C=C(\C)[C@H]3OC(=O)CC(O)CCC(C)[C@@H](OC(=O)N4CCN(C)CC4)/C=C/[C@@H]3C)c2)C1 (stereo in doubt) [Compound 218] | condition met
4. C/C(=C\c1ccc(C)c(N2CCCC2=O)c1)[C@H]1OC(=O)C[C@H](O)CC[C@H](C)[C@@H](OC(=O)N2CCN(C)CC2)/C=C/[C@@H]1C [Compound 207] | condition met
5. C/C(=C\c1cccc(S(=O)(=O)N2CCC2)c1)[C@H]1OC(=O)C[C@H](O)CC[C@H](C)[C@@H](OC(=O)N2CCN(C)CC2)/C=C/[C@@H]1C [Compound 198] | condition met
6. C/C(=C\c1cc(F)cc(N2CCN(C(=O)Cn3cccn3)CC2)c1)[C@H]1OC(=O)C[C@H](O)CC[C@H](C)[C@@H](OC(=O)N2CC[C@@H](F)C2)/C=C/[C@@H]1C [Compound 231] | condition not met
7. C/C(=C\c1cc(F)cc(N2CCN(C(=O)Cn3cccn3)CC2)c1)[C@H]1OC(=O)C[C@H](O)CC[C@H](C)[C@@H](OC(=O)N(C)C2CCN(C)CC2)/C=C/[C@@H]1C [Compound 233] | condition met
8. C/C(=C\c1cc(F)cc(N2CCOCC2)c1)[C@H]1OC(=O)C[C@H](O)CC[C@H](C)[C@@H](OC(=O)N2CCC(N(C)C)C2)/C=C/[C@@H]1C (stereo in doubt) [Compound 243] | condition met
9. C/C(=C\c1cccc(N2CCN(CCO)CC2)c1)[C@H]1OC(=O)C[C@H](O)CC[C@H](C)[C@@H](OC(=O)N2CCC(N3CCCCC3)CC2)/C=C/[C@@H]1C [Compound 263] | condition not met
10. C/C(=C\c1cc(F)cc(N2CCOCC2)c1)[C@H]1OC(=O)C[C@H](O)CC[C@H](C)[C@@H](OC(=O)N2CCN(C)C(C)(C)C2)/C=C/[C@@H]1C [Compound 246] | condition met

Just for reference, patent US11679107B2 is where these values come from.
